Target: Leucine aminopeptidase (Plasmodium falciparum 3D7)
Sequence (Q8IL11 whole entry): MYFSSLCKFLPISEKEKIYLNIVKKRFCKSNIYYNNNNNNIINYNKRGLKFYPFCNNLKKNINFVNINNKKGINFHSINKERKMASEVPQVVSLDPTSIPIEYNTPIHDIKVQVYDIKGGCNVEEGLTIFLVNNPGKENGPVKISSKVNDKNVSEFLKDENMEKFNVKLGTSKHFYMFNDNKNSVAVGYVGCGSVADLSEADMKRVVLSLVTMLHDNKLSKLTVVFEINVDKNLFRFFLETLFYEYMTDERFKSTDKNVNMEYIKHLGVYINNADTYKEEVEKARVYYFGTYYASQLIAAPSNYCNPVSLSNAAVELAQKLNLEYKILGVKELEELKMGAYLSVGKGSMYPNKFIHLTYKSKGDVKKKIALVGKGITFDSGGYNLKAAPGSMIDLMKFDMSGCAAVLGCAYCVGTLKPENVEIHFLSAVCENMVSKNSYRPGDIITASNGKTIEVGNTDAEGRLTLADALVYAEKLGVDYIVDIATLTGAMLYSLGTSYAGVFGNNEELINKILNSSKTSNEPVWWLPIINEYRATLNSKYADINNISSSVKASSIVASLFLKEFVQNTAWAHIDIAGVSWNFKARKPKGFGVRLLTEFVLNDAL
Assay: P. falciparum M17LAP inhibitors, primary screen, biochemical, fluorogenic H-Leu-NHMec substrate, 1536-well (AID 1619)
Format: functional
Active and inactive are the calls of the source.
Assignment: determine reported IC50 for the given compounds.

IC50 lookup needed for Cc1ccc(N(CC(N)=O)C2SC(=O)N(Cc3cccc(C(=O)O)c3)C2=O)cc1 (stereo unspecified) , thanks.
40.7 µM (active)

IC50 lookup needed for CCOC(=O)C(CSCC(=O)c1ccc(Br)cc1)NC(=O)OC(C)(C)C (stereo unspecified) , thanks.
62.2 µM (active)

IC50 lookup needed for `Cc1cc(C(=O)COC(=O)c2ccc[nH]c2=O)c(C)n1CCc1ccc(F)cc1` , thanks.
18.2 µM (active)

IC50 lookup needed for `Cc1[nH]c(C(=O)N/N=C/c2ccc(C(=O)O)cc2)c(C)c1C(=O)N/N=C/c1ccc(C(=O)O)cc1` , thanks.
45.7 µM (active)

IC50 lookup needed for `COc1cc(NC(=O)CSc2ncnc3scc(-c4ccccc4)c23)c(C(=O)O)cc1OC` , thanks.
< 1 µM (active)

IC50 lookup needed for `CCOc1ccc(NC(=O)CSc2nnc(N)s2)c([N+](=O)[O-])c1` , thanks.
2.52 µM (active)

====

target: RNA-binding protein pos-1 (Caenorhabditis elegans, UniProt G5EF15); assay: inhibitors of POS-1/mex-3 RNA binding, dose response, biochemical, fluorescence polarization (AID 1964);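 further: purified POS-1 fused to maltose binding protein made in E. coli; potency of compounds blocking POS-1 binding to fluorescent RNA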
Sequence (G5EF15 whole entry, the tested form may be a part): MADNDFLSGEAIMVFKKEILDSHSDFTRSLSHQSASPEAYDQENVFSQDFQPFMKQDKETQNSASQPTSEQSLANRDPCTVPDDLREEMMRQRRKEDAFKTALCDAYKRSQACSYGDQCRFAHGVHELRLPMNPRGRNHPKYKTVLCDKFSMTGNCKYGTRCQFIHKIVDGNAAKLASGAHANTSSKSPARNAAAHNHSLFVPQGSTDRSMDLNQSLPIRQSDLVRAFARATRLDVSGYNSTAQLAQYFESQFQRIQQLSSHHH
The source made the active and inactive calls.
Assignment: determine reported EC50 for the given compounds.

Hi! What's the reported EC50 for `Cc1c2ccccc2nc2c(F)c(NC(C)C)c(F)c(F)c12` on RNA-binding protein pos-1 (Caenorhabditis elegans, UniProt G5EF15)?
> 300 µM (not active)

Hi! What's the reported EC50 for `COC(=O)[C@@H]1[C@H]2C[C@H]3c4[nH]c5ccccc5c4CCN3C[C@@H]2CC[C@@H]1O` on RNA-binding protein pos-1 (Caenorhabditis elegans, UniProt G5EF15)?
> 300 µM (not active)

Hi! What's the reported EC50 for `COc1ccc(CCCc2nc3ccccc3[nH]2)cc1` on RNA-binding protein pos-1 (Caenorhabditis elegans, UniProt G5EF15)?
> 300 µM (not active)

Hi! What's the reported EC50 for `Cc1ccc(N2C(=O)NC(=O)/C(=C\c3cc(C)n(-c4ccc(C(=O)O)cc4)c3C)C2=O)cc1` on RNA-binding protein pos-1 (Caenorhabditis elegans, UniProt G5EF15)?
> 300 µM (not active)

Hi! What's the reported EC50 for `CCOCCCn1/c(=N/C(=O)c2cccs2)c(C#N)cc2c(=O)n3ccccc3nc21` on RNA-binding protein pos-1 (Caenorhabditis elegans, UniProt G5EF15)?
28.9 µM (active)

Hi! What's the reported EC50 for CC1(C)CC(=O)C2=C(C1)OC(N)=C(C#N)C2c1ccccc1 (configuration not stated) on RNA-binding protein pos-1 (Caenorhabditis elegans, UniProt G5EF15)?
> 300 µM (not active)

Hi! What's the reported EC50 for `O=c1[nH]c2c(s1)C=Nc1ccccc1N2` on RNA-binding protein pos-1 (Caenorhabditis elegans, UniProt G5EF15)?
2.6 µM (inconclusive)

====

experiment: Luminescence Cell-Based Dose Confirmation HTS to Identify Inhibitors of Platelet Dense Granule Release. [Related pubchem assays: 1663 (Primary HTS), 1678 (Summary of Project)]; assay type: functional
Activity calls are given as the source filed them.
recorded endpoint: EC50

EC50 lookup needed for `C/N=c1\scc(-c2ccccc2F)n1/N=C/c1ccc(O)c(O)c1O` , thanks.
2.46 µM (active)

EC50 lookup needed for `NC(=O)c1ccccc1N/C=C/C(=O)c1ccc(Cl)cc1Cl` , thanks.
8.86 µM (active)

EC50 lookup needed for `O=C(CCCN1C(=O)/C(=C/c2ccccc2Cl)SC1=S)NNC(=O)c1ccccc1` , thanks.
> 112 µM (not active)

EC50 lookup needed for `Oc1nc2c(s1)C=Nc1ccccc1N2` , thanks.
1.17 µM (active)

EC50 lookup needed for CCN(CC(=O)Nc1sc2c(c1C#N)CCCC2)CC(=O)NC1CCS(=O)(=O)C1 (stereo not drawn) , thanks.
> 112 µM (not active)

EC50 lookup needed for Cc1ccnc(N2C(=O)c3ccccc3C2O)c1 (stereo not drawn) , thanks.
6.49 µM (active)

EC50 lookup needed for `CCCCn1c2c(c(=N)c3ccccc31)CCC2` , thanks.
1.25 µM (active)

EC50 lookup needed for `Cc1onc(-c2ccccc2Cl)c1C(=O)Nc1ccc(Br)cc1` , thanks.
> 112 µM (not active)

====

Assignment: determine reported IC50 for the given compounds.
target: Large T antigen (Simian virus 40); assay type: functional, Betapolyomavirus macacae;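 further: Confirmatory-stage PubChem screen for compounds that inhibit SV40 T antigen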
Sequence (P03070 whole entry): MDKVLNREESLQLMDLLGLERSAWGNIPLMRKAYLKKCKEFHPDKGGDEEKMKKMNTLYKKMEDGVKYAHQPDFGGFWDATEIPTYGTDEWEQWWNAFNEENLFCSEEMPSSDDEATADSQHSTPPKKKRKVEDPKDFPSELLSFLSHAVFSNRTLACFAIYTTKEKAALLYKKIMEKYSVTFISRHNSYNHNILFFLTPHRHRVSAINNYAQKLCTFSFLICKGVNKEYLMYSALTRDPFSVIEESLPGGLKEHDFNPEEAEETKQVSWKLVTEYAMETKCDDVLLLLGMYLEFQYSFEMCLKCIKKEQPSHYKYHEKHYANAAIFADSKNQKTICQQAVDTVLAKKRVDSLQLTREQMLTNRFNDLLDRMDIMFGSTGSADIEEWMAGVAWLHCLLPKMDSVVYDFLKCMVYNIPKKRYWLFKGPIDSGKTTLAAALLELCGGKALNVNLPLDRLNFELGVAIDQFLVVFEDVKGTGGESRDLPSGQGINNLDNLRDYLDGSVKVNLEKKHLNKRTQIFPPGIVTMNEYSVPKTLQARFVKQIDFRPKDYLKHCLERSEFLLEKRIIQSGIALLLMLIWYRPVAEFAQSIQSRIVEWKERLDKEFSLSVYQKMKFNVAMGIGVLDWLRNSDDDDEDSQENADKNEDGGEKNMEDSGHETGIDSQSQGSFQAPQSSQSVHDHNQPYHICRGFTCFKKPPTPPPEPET
Calls of active or inactive are those of the source.

IC50 lookup needed for COc1ccc(N2C(=O)CC(Sc3n[nH]c(-c4cccc(C)c4)n3)C2=O)cc1 (centres undefined) , thanks.
76.5 µM (active)

IC50 lookup needed for `CCOc1cc(N2CCOCC2)c(OCC)cc1NC(=O)COC(=O)CCOc1ccc(C)cc1` , thanks.
> 100 µM (active)

IC50 lookup needed for `COc1ccc(C(=O)Nc2ccc(O)c3ccccc23)cc1` , thanks.
30.8 µM (active)

IC50 lookup needed for `COc1cc(/C=N\NC(=O)CNC(=O)c2cccc([N+](=O)[O-])c2)ccc1O` , thanks.
3.75 µM (active)

====

Target: Mannose-6-phosphate isomerase (Homo sapiens, UniProt P34949)
Sequence (P34949 whole entry): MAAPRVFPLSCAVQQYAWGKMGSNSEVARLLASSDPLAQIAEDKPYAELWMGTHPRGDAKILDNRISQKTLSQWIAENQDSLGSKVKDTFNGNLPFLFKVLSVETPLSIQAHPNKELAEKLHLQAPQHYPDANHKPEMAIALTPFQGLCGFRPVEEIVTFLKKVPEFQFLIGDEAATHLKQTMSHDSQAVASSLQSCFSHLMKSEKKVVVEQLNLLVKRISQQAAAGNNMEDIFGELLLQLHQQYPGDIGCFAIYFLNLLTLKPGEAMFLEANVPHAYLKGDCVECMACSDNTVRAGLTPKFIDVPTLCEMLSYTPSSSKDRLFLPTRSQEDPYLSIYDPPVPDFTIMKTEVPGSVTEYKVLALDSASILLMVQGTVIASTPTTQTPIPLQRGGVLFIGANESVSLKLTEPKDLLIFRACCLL
Test: human PMI inhibitors, high substrate, primary screen, biochemical, fluorescence intensity, high mannose 6-phosphate (AID 1220)
The source made the active and inactive calls.
Assignment: determine reported IC50 for the given molecules.

IC50 lookup needed for `CCCNC1=C(N(C(C)=O)c2cccc(F)c2)C(=O)c2ccccc2C1=O` , thanks.
> 50 µM (not active)

IC50 lookup needed for `CCCCCn1c(N)c(C(=O)NCc2cccs2)c2nc3ccccc3nc21` , thanks.
> 50 µM (not active)

IC50 lookup needed for `Cc1ccnc(-n2sc3ccccc3c2=O)n1` , thanks.
17.8 µM (active)

IC50 lookup needed for `C/N=c1\scc(-c2ccccc2F)n1/N=C/c1ccc(O)c(O)c1O` , thanks.
25.8 µM (active)

====

test system: H4; assay: Luminescence Cell-Based Dose Response HTS to Identify Activators of 5'UTR Stem-Loop Driven Prion Protein mRNA Translation in H4 Neuroglioblastoma Cells. [Related pubchem assays: 1829 (Project Summary), 1814 (Primary HTS)]; type: functional; settings: Homo sapiens
The source made the active and inactive calls.
Assignment: determine reported EC50 for the given compounds.

EC50 lookup needed for `COC(=O)c1cn(C(=O)/C=C/c2ccc(OC)c(OC)c2)c2ccccc12` , thanks.
> 120 µM (not active)

EC50 lookup needed for `Cc1cccc(NC(=O)c2cc(-c3ccc(C)s3)nc3ccccc23)n1` , thanks.
9.88 µM (active)

EC50 lookup needed for `COc1cccc(C(=O)Nc2nc(O)c3c(n2)CCCC3)c1` , thanks.
> 120 µM (not active)

EC50 lookup needed for `Cc1oc(/N=C/c2ccc3c(c2)OCO3)c(C#N)c1C` , thanks.
> 120 µM (not active)
